method_summary: Ferric iron-binding assay of biotinylated immodulin peptides
test_parameters: N-terminally biotinylated peptide, 400 ng per well, 60 min room temperature; immX3AVD = 100
Square brackets hold non-standard residues; d marks the D form. Ends that are not written are not given here.
reported_property: Ferric iron binding, fluorescence standardized to immX3AVD control peptide (100), Avg ± SD
Returns: the value as a bare number; no unit string appended.

The recorded Ferric iron binding, fluorescence standardized to immX3AVD control peptide (100), Avg ± SD for KKGFYKKKQCRPSKGRKRGFCWRVD [immX3RVD] is 97.5

Further cases:
// field: Ferric iron binding, fluorescence standardized to immX3AVD control peptide (100), Avg ± SD; key: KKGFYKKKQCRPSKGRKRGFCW[dA][dV][dD] (cysteine pairing not given here) [immX3dAdVdD] ; value = 102.4

Data credit: patent US12410220B2
